Tested on: ERK phosphorylation in DLD-1 cells
Assay: In-cell Western blot assay for ERK phosphorylation in DLD-1 cells
Format: cell-based
Conditions: Homo sapiens, p-ERK signal corrected using DMSO and BI-3406, four-parameter fit
measured_parameter: pIC50
Give only the number. pIC50 is defined as minus log10 of concentration in molar units.

Example cases with answers are listed next.
| compound | pIC50 |
| --- | --- |
| COc1c(=O)n(C2(C(F)F)CC2)cc2c(N[C@H](C)c3cccc(C(C)(F)F)c3F)nc(C)nc12 [SZ-022303] | 6.89 |
| CCOc1c(=O)n(C2(C)CC2)cc2c(N[C@H](C)c3cccc(C(C)(F)F)c3F)nc(C)nc12 [SZ-022359] | 6.64 |
| Cc1nc(N[C@H](C)c2cccc(C(F)F)c2F)c2cn(C3(C(F)F)CC3)c(=O)c(OC3CC3)c2n1 [SZ-022299] | 6.12 |

The measured pIC50 associated with COc1c(=O)n(C2(C(F)F)CC2)cc2c(N[C@H](C)c3cccc(C(F)(F)F)c3F)nc(C)nc12 [SZ-022349] reads 6.71

Lab note: measured pIC50 of COc1c(=O)n(C2(C(F)F)CC2)cc2c(N[C@H](C)c3cccc(C(F)F)c3F)nc(C)nc12 [SZ-022244] was 6.58

Sure, the documented pIC50 for Cc1nc(N[C@H](C)c2cccc(C(F)F)c2F)c2cn(C3(C(F)F)CC3)c(=O)c(OC(C)C)c2n1 [SZ-022313] is 5.90

Entry COc1c(=O)n(C2(CF)CC2)cc2c(N[C@H](C)c3cccc(C(F)F)c3F)nc(C)nc12 [SZ-022301] , pIC50 reported as 6.58

Short answer for CSc1c(=O)n(C2(C(F)F)CC2)cc2c(N[C@H](C)c3cccc(C(F)F)c3F)nc(C)nc12 [SZ-022306] : pIC50 was 6.67

Note to self: pIC50 recorded for COc1c(=O)n(C2(C(F)F)CC2)cc2c(N[C@H](C)c3cccc(C(F)F)c3C)nc(C)nc12 [SZ-022302] was 6.98

Form: compound = CCOc1c(=O)n(C2(C)CC2)cc2c(N[C@H](C)c3cccc(C(F)(F)F)c3C)nc(C)nc12 [SZ-022341] ; pIC50 = 6.79
